Record form. Attribute: TGI. Fill in for each entry.
- Test system: OVCAR-8 ovarian
- Assay Name: NCI tumour cell line growth inhibition, 48 h

Below: 3 compounds and their reported TGI.
> print(dat)
                                   compound  test.value
1  CCOC(=O)C1=C(C)C2C3C(=O)NC(=O)C3C1(C)C1C(=O)NC(=O)C21 (stereo not drawn)    > 100 µM
2                 CCN(CC)/C(=C\Cl)Nc1ccccn1    > 100 µM
3  CCN(CC)CCN1CCN=c2c3cc(OC)ccc3n3cnc4ccc1c2c43     2.26 µM

Hi team, please reply with TGI for each item in this list.
1. O[C@H]1[C@H]2[C@H](O)CCCN2C[C@H]1O
2. Clc1cccc(Cl)c1C1SCc2nc3cc4ccccc4cc3n21 (stereo not drawn)
3. Cn1cc(C(=O)/C(Cl)=C(\Cl)C(=O)O)c2ccccc21
4. CC1N(O)C(c2ccccc2)C(c2ccccc2)=[N+]1[O-] (stereo not drawn)
5. CCC[C@H](Nc1nc(-c2ccc(NC(=O)NCC)c(OC)c2)ncc1C)c1cccnc1

RESULT:
1: > 100 µM; 2: > 100 µM; 3: > 100 µM; 4: > 100 µM; 5: 14.6 µM

Give TGI for each of the items listed below.
1. CC1C(c2ccccc2)=CCON1c1ccccc1 (stereo not drawn)
2. O=C(CSc1nnc(-c2ccc(N=Cc3ccc(Cl)cc3)cc2)o1)Nc1ccccc1

RESULT:
> 100 µM
> 100 µM

Required: TGI, one value per compound below.
1. O=C(/C=C/c1c(O)c2ccccc2[nH]c1=O)CC(=O)C(=O)Nc1cccc(O)c1
2. COc1nc(C#CCCCC#N)nc(OC)n1
3. OC1OC(c2ccc[nH]2)C(F)(F)C(F)(F)C1(F)F (stereo not drawn)

RESULT:
> 100 µM
61.4 µM
> 100 µM

---

- Test system: HOP-92 NSCLC
- Assay Name: NCI tumour cell line growth inhibition, 48 h
Assay Metric: TGI

Example results:
> print(dat)
                                compound  test.value
1             CCSc1nc(=S)[nH]c2[nH]ncc12    > 100 µM
2  O=C(O/N=C1/CCC/C1=C\c1ccccc1)c1ccccc1    > 100 µM

// next entry
QUERY: Suppose we examine the compound NC1=NN(c2ccccc2)C(=O)C1C(=O)C(=O)Nc1cccc(C(F)(F)F)c1 (stereo not drawn) ; what TGI value has been reported?
RESULT: > 100 µM

---

- Tested on: HCT-15 colon
- Assay Name: NCI tumour cell line growth inhibition, 48 h
Assay Metric: TGI

> print(dat)
                                   compound  tested.target  test.value
1     O=C(/C=C(\O)C(=O)O)/C=C(\O)c1ccccc1Cl   HCT-15 colon    > 100 µM
2  CC1=Cc2cc3[n-]c(cc4nc(cc5[n-]c(cc1n2)c(C)c5CCC(=O)O)C(CCC(=O)O)=C4C)cc3C.[Cu+2]   HCT-15 colon   > 86.7 µM
3          CCOC(=O)CCc1c(C)c2ccc(O)cc2oc1=O   HCT-15 colon    > 100 µM
4  CCn1cc(C(=O)O)c(=O)c2cc(F)c(N3CCN(Cn4c(O)c(N=NC(=O)c5ccncc5)c5cc(Cl)ccc54)CC3)cc21   HCT-15 colon    > 100 µM
5  COc1cc2c3c(n(CCCn4ccnc4)c(=O)c2cc1OC)-c1ccccc1C3=O   HCT-15 colon     2.37 µM
6            Cc1ccc2nc(CN3CCCCC3)cc(=O)n2c1   HCT-15 colon    > 100 µM

The following compounds each have a reported value; give each one's TGI.
1. Cc1nc(Cl)c(C)c(Cl)n1
2. O=c1[nH]cnc2c1nnn2[C@@H]1O[C@H](CO)[C@@H](O)[C@H]1O

RESULT:
> 100 µM
> 100 µM

Quick one: give me TGI for each item below, same order please.
1. N=C(N)C(N=Nc1ccccc1)C(=N)N (centres undefined)
2. CCCCC1(OC(=O)CCC(=O)O)CCC2(CCC(C)C(C/C=C(C)/C=C/C(O)C(C)/C=C/C(=O)O)O2)OC1CC/C(C)=C/C(=O)O (centres undefined)
3. COc1cc(/C=C2\CCC(C)c3c2nc(N)c(C#N)c3-c2cc(OC)c(OC)c(OC)c2)cc(OC)c1OC (centres undefined)

RESULT:
> 100 µM
12.4 µM
> 100 µM

Give TGI for all compounds that follow.
1. C=C1C(=O)O[C@H]2[C@H]1CC/C(COC(=O)N[C@@H](Cc1c[nH]c3ccccc13)C(=O)OC)=C\CC[C@@]1(C)O[C@@H]21
2. OC1C=C2C3CN(Cc4cc5c(cc43)OCO5)[C@H]2C[C@@H]1O (some centres undefined)
3. CC(C)[Si](OCC/C=C/C1CCC(=O)C1C(O)C1CCCCC1)(C(C)C)C(C)C (centres undefined)

RESULT:
1. 3.91 µM
2. 34.1 µM
3. 30.6 µM

---

- Tested on: MCF7 breast
- Assay Name: NCI tumour cell line growth inhibition, 48 h
What TGI was measured for each of the following?
One number for each entry, in µM.

# annotated cases, reported TGI shown
Compound	Test Value
COc1cc(/C=C/C(=O)CC(=O)/C=C/c2ccc(OC(=O)CCNC34CC5CC(CC(C5)C3)C4)c(OC)c2)ccc1OC(=O)CCNC12CC3CC(CC(C3)C1)C2	9.89
CCCCCCCCO/N=C\c1c2c(O)c3c(O)c(C)c4c(c3c1O)C(=O)C(C)(O/C=C\C(OC)C(C)C(OC(C)=O)C(C)C(O)C(C)C(O)C(C)/C=C\C=C(\C)C(=O)N2)O4 (centres undefined)	5.12
C[C@]12CC[C@H]3[C@@H](CC=C4C[C@@H](O)CC[C@@]43C)[C@@H]1C/C(=C\c1cccc(OCCCn3ccnc3)c1)[C@@H]2O	34.2
CCC[C@H](Nc1nc(-c2ccc(NC(=O)NCC)c(OC)c2)ncc1C)c1cccnc1	29.6
COc1cc(N)ccc1Nc1c2ccccc2nc2ccccc12	13.5
CCC/C(Cl)=N\OC(=O)Nc1ccc(Br)cc1	19.7

Please give TGI, item by item, for the list that follows.
1. COc1ccc(OC)c2sc(N3C(=O)/C(=C/c4ccccc4S)N=C3c3ccccc3)nc12
2. CC(=O)C1=C(O)C2(O)C(=O)c3c(c(C)c4ccc(C)c(O)c4c3O)CC2C(N)C1=O (centres undefined)
3. OC1C=C2C3CN(Cc4cc5c(cc43)OCO5)[C@H]2C[C@@H]1O (some centres undefined)

RESULT:
1. 36.5
2. 18.3
3. 22.2

---

- System: HCT-15 colon
- Assay Name: NCI tumour cell line growth inhibition, 48 h; in the data active means GI50 below about 0.43 µM; inactive means the rest
*1 amine or outer side, *2 acyl side, *3 side chain or, on linkers, in order; H or OH if unused. Where a SMILES comes first, the peptide text is derived from it. CO = O=C([*:1])[*:2]
The reply should name one outcome from active, inactive

Compound	Answer Label
Cc1c(N(C(=O)c2cc(-c3cc(Cl)ccc3C(=O)N3Cc4ccccc4C[C@H]3CN3CCOCC3)n(C)c2C)c2ccc(O)cc2)cc(C#N)n1C	inactive
COc1ccc(C(=O)c2ccc(OC)cc2OC)cc1	inactive
O=[N+]([O-])c1ccccc1/C=C/C=C1c2ccccc2-c2ccccc21	inactive

QUERY: Record lookup: outcome of this test for CCCN1C(=O)/C(=C/c2ccc(O)cc2)SC1=Nc1ccccc1 ?
RESULT: inactive

QUERY: Call for entry O=C(c1cccs1)c1c(C(F)(F)F)n([O-])c2cc(C(F)(F)F)ccc2[n+]1=O :
RESULT: active

QUERY: Recorded call for O=C1CC(N2C(=O)/C(=C/C(Cl)=C\c3ccc([N+](=O)[O-])cc3)SC2=S)C(=O)N1c1ccc(Cl)cc1 (stereo not drawn) ?
RESULT: inactive

QUERY: Hi, sorry to bother you, what did the test record for COc1cc(/C=C2\C[C@H]3[C@@H]4CC=C5C[C@@H](OC(C)=O)CC[C@]5(C)[C@H]4CC[C@]3(C)[C@H]2OC(C)=O)ccc1OCCCn1ccnc1 ?
RESULT: inactive

QUERY: Hello, I am checking results. What call was entered for Nc1c(C(=O)Nc2cccc3ccccc23)sc2nc3c(cc12)CCCCC3 ?
RESULT: active

QUERY: Tell me the recorded outcome of this test for Cc1cc(Nc2nc(N3CCOCC3)nc3ccccc23)n[nH]1 .
RESULT: inactive

QUERY: Per the records of this test, what outcome belongs to CC(C)C(NC(=O)C(CCCN=C(N)N)NC(=O)NC(Cc1ccccc1)C(=O)O)C(=O)NC(C=O)CCCN=C(N)N (stereo not drawn) ({Phe-CO}-Arg-Val-Arg-aldehyde; configuration not given here) ?
RESULT: inactive

QUERY: Entry COc1cc(-c2ccc(-[n+]3nc(-c4ccc([N+](=O)[O-])cc4)nn3-c3ccc([N+](=O)[O-])cc3)c(OC)c2)ccc1-[n+]1nc(-c2ccc([N+](=O)[O-])cc2)nn1-c1ccc([N+](=O)[O-])cc1 : call = ?
RESULT: inactive

QUERY: Hi, do you know how C=C1C(=O)O[C@H]2[C@H]1CC/C(COC(=O)N[C@@H](Cc1c[nH]c3ccccc13)C(=O)OC)=C\CC[C@@]1(C)O[C@@H]21 came out in this test?
RESULT: inactive

QUERY: Entry O=C(CSc1nc2sc3c(c2c(=O)n1-c1ccccc1)CCCCC3)N/N=C/c1ccc(F)cc1 : call = ?
RESULT: inactive
